Every entry's value here was drawn from ChEMBL document CHEMBL4715780.

# Tested on: Staphylococcus aureus
# PROTOCOL SUMMARY: Antibacterial activity against […] Staphylococcus aureus ATCC 25923 assessed as bacterial growth inhibition by CLSI protocol based serial microdilution method
# Assay type: functional
Field: MIC. Provide a value for each of the molecules that follow.
Use µg/mL as the unit, but write only the number.

Sample CCCCCCCCCCCC[N+]12CC[N+](Cc3cccc(-c4ccccc4C[N+]45CC[N+](CCCCCCCCCCCC)(CC4)CC5)c3)(CC1)CC2 ; MIC observed: 0.6

Sample CCCCCCCCCCCC[N+]12CC[N+](CCNCC[N+]34CC[N+](CCCCCCCCCCCC)(CC3)CC4)(CC1)CC2.[Cl-].[Cl-].[Cl-].[Cl-] ; MIC observed: 0.6

Sample CCCCCCCCCCCC[N+]12CC[N+](Cc3cccc(C[N+]45CC[N+](CCCCCCCCCCCC)(CC4)CC5)c3)(CC1)CC2 ; MIC observed: 0.6

Sample CCCCCCCCCCCC[N+]12CC[N+](CCC[N+]34CC[N+](CCCCCCCCCCCC)(CC3)CC4)(CC1)CC2 ; MIC observed: 0.3

Sample CCCCCCCCCCCC[N+]12CC[N+](Cc3ccc(C[N+]45CC[N+](CCCCCCCCCCCC)(CC4)CC5)cc3)(CC1)CC2 ; MIC observed: 0.6

Sample CCCCCCCCCCCC[N+]12CC[N+](CC#CC[N+]34CC[N+](CCCCCCCCCCCC)(CC3)CC4)(CC1)CC2 ; MIC observed: 1.6

Sample CCCCCCCCCCCC[N+]12CC[N+](Cc3ccccc3C[N+]34CC[N+](CCCCCCCCCCCC)(CC3)CC4)(CC1)CC2 ; MIC observed: 0.6

Sample CCCCCCCCCCCC[N+]12CC[N+](CCCCC[N+]34CC[N+](CCCCCCCCCCCC)(CC3)CC4)(CC1)CC2 ; MIC observed: 0.6

Sample CCCCCCCCCCCC[N+]12CC[N+](CCCC[N+]34CC[N+](CCCCCCCCCCCC)(CC3)CC4)(CC1)CC2 ; MIC observed: 0.6

Sample CCCCCCCCCCCC[N+]12CC[N+](Cc3nnn(CCCCC(=O)OC)c3C[N+]34CC[N+](CCCCCCCCCCCC)(CC3)CC4)(CC1)CC2.[Cl-].[Cl-].[Cl-].[Cl-] ; MIC observed: 1.6

Sample CCCCCCCCCCCC[N+]12CC[N+](Cc3nnn(CCCCCN=[N+]=[N-])c3C[N+]34CC[N+](CCCCCCCCCCCC)(CC3)CC4)(CC1)CC2.[Cl-].[Cl-].[Cl-].[Cl-] ; MIC observed: 1.6

Sample C#CCOCCCCCN(CC[N+]12CC[N+](CCCCCCCCCCCC)(CC1)CC2)CC[N+]12CC[N+](CCCCCCCCCCCC)(CC1)CC2.[Cl-].[Cl-].[Cl-].[Cl-] ; MIC observed: 1.6

Sample CCCCCCCCCCCC[N+]12CC[N+](CCCCCCCC[N+]34CC[N+](CCCCCCCCCCCC)(CC3)CC4)(CC1)CC2 ; MIC observed: 0.6

Sample CCCCCCCCCCCC[N+]12CC[N+](C/C=C/C[N+]34CC[N+](CCCCCCCCCCCC)(CC3)CC4)(CC1)CC2 ; MIC observed: 1.2

* * *

Field: selectivity ratio at 24 h. Provide a value for each of the compounds that follow.
# PROTOCOL SUMMARY: Selectivity index, ratio of CC50 for HEK293T cells assessed as reduction in cell viability measured after 24 hrs by MTT assay to MIC for Candida albicans CEMTC 34 assessed as bacterial growth inhibition by CLSI protocol based serial microdilution method
# Format: toxicity
# COND: human, read-out: Selectivity Index
Number, no unit, nothing else.

Sample CCCCCCCCCCCC[N+]12CC[N+](CC#CC[N+]34CC[N+](CCCCCCCCCCCC)(CC3)CC4)(CC1)CC2 ; selectivity ratio at 24 h observed: 2

Sample CCCCCCCCCCCC[N+]12CC[N+](Cc3ccc(C[N+]45CC[N+](CCCCCCCCCCCC)(CC4)CC5)cc3)(CC1)CC2 ; selectivity ratio at 24 h observed: 1

Sample CCCCCCCCCCCC[N+]12CC[N+](CCCCC[N+]34CC[N+](CCCCCCCCCCCC)(CC3)CC4)(CC1)CC2 ; selectivity ratio at 24 h observed: 1

Sample CCCCCCCCCCCC[N+]12CC[N+](Cc3cccc(C[N+]45CC[N+](CCCCCCCCCCCC)(CC4)CC5)c3)(CC1)CC2 ; selectivity ratio at 24 h observed: 1

Sample CCCCCCCCCCCC[N+]12CC[N+](Cc3ccccc3C[N+]34CC[N+](CCCCCCCCCCCC)(CC3)CC4)(CC1)CC2 ; selectivity ratio at 24 h observed: 1

* * *

Field: CC50 at 24 h. Provide a value for each of the compounds that follow.
# PROTOCOL SUMMARY: Cytotoxicity against HEK293T cells assessed as reduction in cell viability measured after 24 hrs by MTT assay
# Format: cell-based, HEK-293T
# COND: human
Use µg/mL as the unit, but write only the number.

Sample CCCCCCCCCCCC[N+]12CC[N+](CC#CC[N+]34CC[N+](CCCCCCCCCCCC)(CC3)CC4)(CC1)CC2 ; CC50 at 24 h observed: 22

Sample CCCCCCCCCCCC[N+]12CC[N+](C/C=C/C[N+]34CC[N+](CCCCCCCCCCCC)(CC3)CC4)(CC1)CC2 ; CC50 at 24 h observed: 10

Sample CCCCCCCCCCCC[N+]12CC[N+](CCCCC[N+]34CC[N+](CCCCCCCCCCCC)(CC3)CC4)(CC1)CC2 ; CC50 at 24 h observed: 7.5

Sample CCCCCCCCCCCC[N+]12CC[N+](Cc3ccccc3C[N+]34CC[N+](CCCCCCCCCCCC)(CC3)CC4)(CC1)CC2 ; CC50 at 24 h observed: 4

Sample CCCCCCCCCCCC[N+]12CC[N+](Cc3ccc(C[N+]45CC[N+](CCCCCCCCCCCC)(CC4)CC5)cc3)(CC1)CC2 ; CC50 at 24 h observed: 16

Sample CCCCCCCCCCCC[N+]12CC[N+](CCCC[N+]34CC[N+](CCCCCCCCCCCC)(CC3)CC4)(CC1)CC2 ; CC50 at 24 h observed: 4

Sample Clc1ccccc1C(c1ccccc1)(c1ccccc1)n1ccnc1 [CLOTRIMAZOLE] ; CC50 at 24 h observed: 7

Sample CCCCCCCCCCCC[N+]12CC[N+](CCC[N+]34CC[N+](CCCCCCCCCCCC)(CC3)CC4)(CC1)CC2 ; CC50 at 24 h observed: 6.5

Sample CCCCCCCCCCCC[N+]12CC[N+](Cc3cccc(C[N+]45CC[N+](CCCCCCCCCCCC)(CC4)CC5)c3)(CC1)CC2 ; CC50 at 24 h observed: 16

* * *

# PROTOCOL SUMMARY: Selectivity index, ratio of CC50 for MDCK cells to EC50 for Influenza A virus (A/Puerto Rico/8/34 (H1N1)) infected in MDCK cells
# Assay type: toxicity, cell-based
# COND: dog, read-out: Ratio CC50/EC50
Field: selectivity ratio. Provide a value for each of the compounds that follow.

Sample CCCCCCCCCCCC[N+]12CC[N+](CCCC[N+]34CC[N+](CCCCCCCCCCCC)(CC3)CC4)(CC1)CC2 ; selectivity ratio observed: < 2

Sample CCCCCCCCCCCC[N+]12CC[N+](Cc3nnn(CCCCC(=O)OC)c3C[N+]34CC[N+](CCCCCCCCCCCC)(CC3)CC4)(CC1)CC2.[Cl-].[Cl-].[Cl-].[Cl-] ; selectivity ratio observed: < 2

Sample CCCCCCCCCCCC[N+]12CC[N+](CC#CC[N+]34CC[N+](CCCCCCCCCCCC)(CC3)CC4)(CC1)CC2 ; selectivity ratio observed: < 1

* * *

# PROTOCOL SUMMARY: Selectivity index, ratio of CC50 for HEK293T cells assessed as reduction in cell viability measured after 24 hrs by MTT assay to MIC for Salmonella enterica ATCC 14028 assessed as bacterial growth inhibition by CLSI protocol based serial microdilution method
# Format: toxicity
# COND: human, read-out: Selectivity Index
TEST READOUT: selectivity ratio at 24 h

Sample CCCCCCCCCCCC[N+]12CC[N+](C/C=C/C[N+]34CC[N+](CCCCCCCCCCCC)(CC3)CC4)(CC1)CC2 ; selectivity ratio at 24 h observed: 6

Sample CCCCCCCCCCCC[N+]12CC[N+](CCCCC[N+]34CC[N+](CCCCCCCCCCCC)(CC3)CC4)(CC1)CC2 ; selectivity ratio at 24 h observed: 5

Sample CCCCCCCCCCCC[N+]12CC[N+](Cc3ccc(C[N+]45CC[N+](CCCCCCCCCCCC)(CC4)CC5)cc3)(CC1)CC2 ; selectivity ratio at 24 h observed: 10

* * *

# PROTOCOL SUMMARY: Selectivity index, ratio of CC50 for HEK293T cells assessed as reduction in cell viability measured after 24 hrs by MTT assay to MIC for Candida albicans CEMTC 34 assessed as bacterial growth inhibition by CLSI protocol based serial microdilution method
# Type: toxicity
# COND: human, read-out: Selectivity Index
TEST READOUT: selectivity ratio at 24 h

Sample Clc1ccccc1C(c1ccccc1)(c1ccccc1)n1ccnc1 [CLOTRIMAZOLE] ; selectivity ratio at 24 h observed: < 1

Sample CCCCCCCCCCCC[N+]12CC[N+](C/C=C/C[N+]34CC[N+](CCCCCCCCCCCC)(CC3)CC4)(CC1)CC2 ; selectivity ratio at 24 h observed: < 1

Sample CCCCCCCCCCCC[N+]12CC[N+](CCCC[N+]34CC[N+](CCCCCCCCCCCC)(CC3)CC4)(CC1)CC2 ; selectivity ratio at 24 h observed: < 1
